- TEST_TARGET: Cannabinoid receptor 2 (Homo sapiens)
- Sequence (P34972 whole entry): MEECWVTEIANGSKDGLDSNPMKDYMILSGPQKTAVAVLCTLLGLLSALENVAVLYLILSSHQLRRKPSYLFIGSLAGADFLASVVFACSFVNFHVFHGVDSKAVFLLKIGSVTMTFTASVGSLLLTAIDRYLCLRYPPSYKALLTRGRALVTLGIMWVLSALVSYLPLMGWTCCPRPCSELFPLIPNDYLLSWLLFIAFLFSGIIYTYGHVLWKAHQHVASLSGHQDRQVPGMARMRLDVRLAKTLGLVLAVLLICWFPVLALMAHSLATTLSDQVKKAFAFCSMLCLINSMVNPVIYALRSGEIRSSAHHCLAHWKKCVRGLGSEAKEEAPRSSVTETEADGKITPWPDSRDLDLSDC
- ASSAY_TEXT: Agonist activity at human CB2 receptor assessed as inhibition of forskolin-induced cAMP production preincubated for 15 mins followed by forskolin challenge measured after 30 mins by HTRF assay
- Format: functional
pEC50: −log10 of the molar value.

MOLECULE | pEC50
CNC(=O)[C@@H](NC(=O)c1nc(-c2ccccc2)n2c1CN(C)CCC2)C(C)(C)C | 8.00
Cc1sc(NC(=O)N2CCCN(C(=O)C3CCC(F)(F)CC3)CC2)nc1C(C)(C)C | 9.15
CC(NC(=O)c1nc(N2CCOCC2)n2ccccc12)C(C)(C)C (stereo unspecified) | 8.27
CC(C)(C)NC(=O)c1nn(-c2ccc(F)cc2F)c2c1[C@H]1CC[C@@H]2C1 | 9.21
CC(=O)N1CCC(Cn2c(C(C)(C)C)nc3cc(S(=O)(=O)C4CCCC4)ccc32)CC1 | 8.52
FC1(F)CCN(Cc2nc(-c3cccc(C(F)(F)F)c3)n3ccccc23)CC1 | 7.77
